# Tested on: barnyardgrass
# Test Protocol: Test A pre-/postemergence herbicide test
# Format: in vivo, Echinochloa crus-galli
# Condition: Preemergence, 125 g ai/ha; visual rating on 0 to 100 scale (0 no effect, 100 complete control)
Experimental Readout: Barnyardgrass plant response rating

                                   compound  measured_value
0  O=C1NCC(c2cccc(OC(F)(F)F)c2)C1C(=O)Nc1cccc(F)c1F (stereo not drawn)              80
1  O=C1NCC(c2cccc(C(F)(F)F)c2)C1C(=O)Nc1ccccc1C(F)(F)F (racemic)              60
2  O=C1NCC(c2ccc(F)c(F)c2)C1C(=O)Nc1cccc(F)c1F (racemic)              20
3  O=C1NCC(c2ccc3c(c2)OC(F)(F)O3)C1C(=O)Nc1cccc(F)c1F (stereo not drawn)              80
4  O=C1NCC(c2ccc(F)c(Cl)c2)C1C(=O)Nc1cccc(F)c1F (stereo not drawn)              80
5  O=C1NCC(c2ccccc2)C1C(=O)Nc1ccccc1C(F)(F)F (racemic)               0
6  O=C1NCC(c2ccc(F)c(C(F)(F)F)c2)C1C(=O)Nc1ccccc1C(F)(F)F (racemic)              80
7  O=C1NCC(c2cccc(F)c2)C1C(=O)Nc1ccccc1F (racemic)              30
8  O=C1NCC(c2ccc(F)c(F)c2)C1C(=O)Nc1cccc(F)c1 (racemic)              60

---

Listing of entries alongside the reported Plant response rating (scale of 0 to 100), Foxtail, Giant.
# Test system: foxtail, giant
# Test Protocol: Test C pre-/postemergence herbicide test
# Type: in vivo, Setaria faberii
# Condition: Preemergence, 250 g ai/ha
Experimental Readout: Plant response rating (scale of 0 to 100), Foxtail, Giant

>>> df
                                   molecule  measured_value
0  O=C1NCC(c2ccc(C(F)(F)F)nc2)C1C(=O)Nc1cccc(F)c1F (racemic)              98
1  O=C1NCC(c2cccc(C(F)F)c2)C1C(=O)Nc1cccc(F)c1F (racemic)              95
2  O=C1NCC(c2cc(F)cc(F)c2)C1C(=O)Nc1ccc(F)cc1F (racemic)             100
3  O=C1NCC(c2cccc(Cl)c2)C1C(=O)Nc1cccc(F)c1F (racemic)             100
4  O=C1NCC(c2ccccc2)C1C(=O)Nc1ccccc1F (racemic)              73
5  O=C1NCC(c2cccc(C(F)(F)F)c2)C1C(=O)Nc1ccc(F)cc1F (racemic)              98
6  Cc1cccc(NC(=O)C2C(=O)NCC2c2cccc(C(F)(F)F)c2)c1 (centres unmarked)              95
7  O=C1NCC(c2ccc(F)cc2)C1C(=O)Nc1cccc(F)c1F (racemic)              98

---

# Tested on: waterhemp
# Test Protocol: Test C pre-/postemergence herbicide test
# Type: in vivo, Amaranthus rudis
# Condition: Postemergence, 62 g ai/ha; scale 0 (no effect) to 100 (complete control)
Experimental Readout: Plant response rating, Waterhemp

>>> print(df.to_string())
                                   compound              experimental_readout  measured_value
0  O=C1NCC(c2cc(F)cc(F)c2)C1C(=O)Nc1cccc(F)c1F (racemic)  Plant response rating, Waterhemp              20
1  O=C1NCC(c2ccc(F)cc2)C1C(=O)Nc1cccc(F)c1F (racemic)  Plant response rating, Waterhemp               0
2  O=C1NCC(c2cccc(C(F)(F)F)c2)C1C(=O)Nc1ccccc1Cl (stereo not shown)  Plant response rating, Waterhemp              45
3  O=C1NCC(c2ccc(C(F)(F)F)cc2)C1C(=O)Nc1ccc(F)c(F)c1F (stereo not shown)  Plant response rating, Waterhemp              75
